The origin of these recorded values is ChEMBL document CHEMBL1165911.

- Tested target: Beta-secretase 1 (Homo sapiens)
- Sequence (P56817 whole entry): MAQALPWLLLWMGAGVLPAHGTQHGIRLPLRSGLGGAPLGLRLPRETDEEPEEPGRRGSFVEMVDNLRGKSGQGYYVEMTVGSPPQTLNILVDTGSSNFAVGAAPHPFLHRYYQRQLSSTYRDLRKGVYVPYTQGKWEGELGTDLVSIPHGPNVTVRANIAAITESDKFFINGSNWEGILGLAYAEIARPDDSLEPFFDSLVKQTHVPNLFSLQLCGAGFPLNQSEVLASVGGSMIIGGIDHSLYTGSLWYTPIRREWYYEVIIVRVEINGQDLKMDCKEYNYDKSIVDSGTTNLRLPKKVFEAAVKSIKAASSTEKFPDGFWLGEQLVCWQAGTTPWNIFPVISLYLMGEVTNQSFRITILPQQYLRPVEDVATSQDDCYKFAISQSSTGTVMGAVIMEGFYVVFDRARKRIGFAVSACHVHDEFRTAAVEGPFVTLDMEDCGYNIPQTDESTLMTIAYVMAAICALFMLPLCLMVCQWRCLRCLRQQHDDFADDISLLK
Reported IC50 by item:
A number alone suffices; assume µM.

Please review the following examples before continuing.
- Chemical string: "Cc1ccc(C)c(Nc2nc(N/N=C/c3cc(Br)cc(Br)c3O)nc(N3CCOCC3)n2)c1"
  Tested target: "Beta-secretase 1 (Homo sapiens)"
  IC50 [µM]: 100
- Chemical string: "COc1ccc(-n2nc(C(=O)NCC(=O)Nc3cccc(C)n3)c3ccccc3c2=O)cc1Cl"
  Tested target: "Beta-secretase 1 (Homo sapiens)"
  IC50 [µM]: 100
- Chemical string: "O=C(CN1CCN(Cc2ccccc2)CC1)N/N=C\\c1cc(I)cc(I)c1O"
  Tested target: "Beta-secretase 1 (Homo sapiens)"
  IC50 [µM]: 100
- Chemical string: "COc1ccc(OC)c(/N=c2\\oc3c(C)ncc(CO)c3cc2C(=O)Nc2ccc(Cl)cc2)c1"
  Tested target: "Beta-secretase 1 (Homo sapiens)"
  IC50 [µM]: 100

Now for the molecule whose IC50 we want.
[ask] Find IC50 for NC(=O)c1ccc[n+](CC(=O)Nc2cccc(NC(=O)c3ccccc3)c2)c1 on Beta-secretase 1 (Homo sapiens) and write it down.
[reply] 44.7
